target: aldose reductase (Rattus norvegicus); construct: the lenses were excised and homogenized in cold distilled water; from tissue; host or cells: lens of male SD rats, homogenate supernatant (crude enzyme); test: Inhibitory activity against aldose reductase (crude enzyme from rat lenses, NADPH oxidation at 340 nm, D,L-glyceraldehyde substrate); format: biochemical; details: 10^-5 M; aldose reductase from SD rat lenses, pH 6.2, 30° C.
Measured Parameter: Percentage of inhibition (%)

// below: answered molecules
molecule=CC(=Cc1ccccc1OCC(=O)O)C=C1SC(=S)NC1=O quantitative_readout=89.7
molecule="COC(=O)COc1ccc(C(C)C)cc1C=CC(C)=C1SC(=S)NC1=O (single isomer, unassigned) [62 Isomer B]" quantitative_readout=66.7
molecule="CC(C=Cc1ccc(OCC(=O)O)c(OCC(=O)O)c1)=C1SC(=S)NC1=O (single isomer, unassigned) [83 Isomer B]" quantitative_readout=75.8
molecule="CCCCCCC(CCc1ccc(CCC(=O)O)cc1)=C1SC(=S)NC1=O (single isomer, unassigned) [33 Isomer B]" quantitative_readout=30.5
molecule="CCCC(CCc1ccccc1OCC(=O)O)=C1SC(=S)NC1=O (single isomer, unassigned) [27 Isomer B]" quantitative_readout=83.8
molecule="CCOC(=O)CCC(C=Cc1cccs1)=C1SC(=S)NC1=O (single isomer, unassigned) [13 Isomer B]" quantitative_readout=54.3
molecule="CCCCOC(=O)COc1ccc(Cl)cc1C=CC(C)=C1SC(=S)NC1=O (single isomer, unassigned) [51 Isomer B]" quantitative_readout=58.7
molecule="COc1ccc(C=CC(CCCC(=O)O)=C2SC(=S)NC2=O)cc1OC (single isomer, unassigned) [38 Isomer B]" quantitative_readout=94.5

[I] CCCC(C=Cc1ccc(C(=O)O)cc1)=C1SC(=S)NC1=O (single isomer, unassigned) [3 Isomer B]
[II] CCOC(=O)CCC(C=Cc1cccc(O)c1)=C1SC(=S)NC1=O (single isomer, unassigned) [8 Isomer B]
Would you mind telling me which has the lower recorded Percentage of inhibition (%) between I and II ? Could you answer with the label of the item you picked? II
(II: 43.1%, I: 80.5%)

* * *

target: aldose reductase (Rattus norvegicus); construct: the lenses were excised and homogenized in cold distilled water; from tissue; host or cells: lens of male SD rats, homogenate supernatant (crude enzyme); assay: Inhibitory activity against aldose reductase (crude enzyme from rat lenses, NADPH oxidation at 340 nm, D,L-glyceraldehyde substrate); type: biochemical; details: 10^-6 M; aldose reductase from SD rat lenses, pH 6.2, 30° C.
Measured Parameter: Percentage of inhibition (%)

Reference set (5 entries):
compound=CC(=Cc1ccccc1OCC(=O)O)C=C1SC(=S)NC1=O quantitative_readout=69.6
compound="CC(C=Cc1ccc(OCC(=O)O)c(OCC(=O)O)c1)=C1SC(=S)NC1=O (single isomer, unassigned) [83 Isomer B]" quantitative_readout=36.8
compound="CCCC(CCc1ccccc1OCC(=O)O)=C1SC(=S)NC1=O (single isomer, unassigned) [27 Isomer B]" quantitative_readout=45.9
compound="COC(=O)COc1ccc(C=CC(C)=C2SC(=S)NC2=O)cc1OCC(=O)OC (single isomer, unassigned) [60 Isomer B]" quantitative_readout=30.4
compound="CCOC(=O)COc1ccc(C=CC(C)=C2SC(=S)N(C)C2=O)cc1OC (single isomer, unassigned) [55 Isomer B]" quantitative_readout=24.3

[A] CCCC(C=Cc1ccc(C(=O)O)cc1)=C1SC(=S)NC1=O (single isomer, unassigned) [3 Isomer B]
[B] COc1ccc(C=CC(CCCC(=O)O)=C2SC(=S)NC2=O)cc1OC (single isomer, unassigned) [38 Isomer B]
Of A and B , which carries the smaller reported Percentage of inhibition (%) figure? Choose, then provide that item's label. A
